Where do the numbers come from? From patent US20190241669A1.

Catalogue of kon readings, one per entry.
# Study target: T1, cynomolgus monkey BCMA (cynomolgus monkey, UniProt A0A2K5UD97 1-53)
# T1 construct: Soluble analyte in SPR; construct not described; also called cyBCMA; Cyno BCMA
# T1 sequence (A0A2K5UD97 entry or part of it): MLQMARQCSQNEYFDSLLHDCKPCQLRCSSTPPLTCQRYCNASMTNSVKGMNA
# Experimental protocol: SPR, IgG on chip, cyBCMA analyte, 37C
Metric name: kon

[[record]]
binder = "L3.PY/L3.KY/H3.TAQ (antibody, V domains shown, IgG) VH: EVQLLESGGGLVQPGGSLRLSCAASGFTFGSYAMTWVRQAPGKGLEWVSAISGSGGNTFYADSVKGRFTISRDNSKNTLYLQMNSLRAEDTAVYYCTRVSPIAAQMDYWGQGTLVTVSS VL: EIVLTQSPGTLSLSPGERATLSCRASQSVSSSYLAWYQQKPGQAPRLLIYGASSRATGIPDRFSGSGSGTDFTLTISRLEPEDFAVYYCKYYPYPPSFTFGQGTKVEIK"
reported = "1.81e+06 M⁻¹ s⁻¹"

[[record]]
binder = "L3.PY/L1.PH/H3.AQ (antibody, V domains shown, IgG) VH: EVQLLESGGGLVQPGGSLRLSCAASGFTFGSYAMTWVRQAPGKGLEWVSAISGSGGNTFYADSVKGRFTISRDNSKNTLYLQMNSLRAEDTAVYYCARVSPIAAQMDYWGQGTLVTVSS VL: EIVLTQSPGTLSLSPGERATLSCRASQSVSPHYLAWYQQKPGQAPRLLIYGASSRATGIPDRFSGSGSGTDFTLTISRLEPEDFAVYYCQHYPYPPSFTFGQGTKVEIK"
reported = "2.28e+06 M⁻¹ s⁻¹"

[[record]]
binder = "L3.PY/L1.AH/H3.TAQ (antibody, V domains shown, IgG) VH: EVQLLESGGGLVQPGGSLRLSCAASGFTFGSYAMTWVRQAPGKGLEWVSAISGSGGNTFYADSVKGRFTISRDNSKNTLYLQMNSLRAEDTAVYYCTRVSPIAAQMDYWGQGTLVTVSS VL: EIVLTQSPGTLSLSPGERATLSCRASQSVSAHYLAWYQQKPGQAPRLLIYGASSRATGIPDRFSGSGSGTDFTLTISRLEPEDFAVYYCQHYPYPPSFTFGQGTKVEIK"
reported = "2.28e+06 M⁻¹ s⁻¹"

[[record]]
binder = "L3.PY/L1.FF/H2.LT (antibody, V domains shown, IgG) VH: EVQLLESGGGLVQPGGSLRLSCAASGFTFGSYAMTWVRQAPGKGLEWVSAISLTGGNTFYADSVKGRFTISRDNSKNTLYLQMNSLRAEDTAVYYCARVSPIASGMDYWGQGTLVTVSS VL: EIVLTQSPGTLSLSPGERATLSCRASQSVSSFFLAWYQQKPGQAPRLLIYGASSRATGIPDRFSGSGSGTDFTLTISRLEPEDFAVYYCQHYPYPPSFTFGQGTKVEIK"
reported = "2.19e+06 M⁻¹ s⁻¹"

[[record]]
binder = "L3.PY/L1.FF/H2.HA (antibody, V domains shown, IgG) VH: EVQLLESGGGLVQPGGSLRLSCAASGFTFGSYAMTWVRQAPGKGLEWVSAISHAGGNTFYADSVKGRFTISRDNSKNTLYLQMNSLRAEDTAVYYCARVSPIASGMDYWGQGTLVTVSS VL: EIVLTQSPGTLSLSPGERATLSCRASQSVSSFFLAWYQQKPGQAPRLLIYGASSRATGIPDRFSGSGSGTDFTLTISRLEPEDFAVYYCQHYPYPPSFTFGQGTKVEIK"
reported = "2.33e+06 M⁻¹ s⁻¹"

